Assay: M. tuberculosis growth inhibition, HTS (AID 449762);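 note: bacterial growth assessed after seven days of incubation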
Conditions: M. tuberculosis H37Rv growth inhibition, 7H9 media; at 25 µM; active compounds read high
The campaign covered roughly 330,000 compounds. About 1,900 (0.58%) were called active. Inconclusive results (about 4%) are left out. These entries were drawn from the full list. Measured potencies and affinities stand elsewhere.
A collection of compounds and their measured inhibition
Report the value in % with no unit label.

Which inhibition value is on record for CCOC(=O)[C@@]12C(=O)C(=O)N[C@]1(c1ccccc1)C1OCCCC12 (some centres undefined) ?
1.95

Which inhibition value is on record for COc1ccc(-n2nnnc2S(=O)(=O)Cc2ccc(C(=O)O)cc2)cc1 ?
-3.99

Which inhibition value is on record for Nc1c(-c2ccccc2)nc(Cl)nc1-c1ccccc1 ?
15.6

Which inhibition value is on record for Fc1ccc(CN2CCN(c3ccc(Cl)cc3)CC2)cc1 ?
9.18

Which inhibition value is on record for O=C(NCc1ccc2c(c1)OCO2)c1c(F)c(F)c(F)c(F)c1F ?
4.75

Which inhibition value is on record for Cc1cccc(C)c1-n1nnnc1SCSc1nnnn1-c1c(C)cccc1C ?
-0.17

Which inhibition value is on record for COC(=O)C1=C(c2ccc(OC)c(OC)c2)C[C@@H]2CC[C@H]1N2C(=O)NC1Cc2ccccc2C1 ?
-10

Which inhibition value is on record for c1ccc(-c2nc3cccnc3nc2-c2ccccc2)cc1 ?
-12.8

Which inhibition value is on record for Cc1ccc2c(c1)N(C(=O)CCC(=O)N1CCOCC1)CCO2 ?
-0.82

Which inhibition value is on record for O=[N+]([O-])c1cccc(-c2nc(-c3ccccc3)c(-c3cccs3)[nH]2)c1 ?
1.45

Which inhibition value is on record for C[C@H](CO)N1C[C@H](C)[C@@H](CN(C)C(=O)NC2CCCCC2)Oc2ccc(NC(=O)Cn3cnnn3)cc2C1=O ?
4.07

Which inhibition value is on record for CCCCNC(=O)c1ccc(N2CCC3(CC2)OCCO3)c([N+](=O)[O-])c1 ?
-3.04

Which inhibition value is on record for COc1cc2c(cc1OC)C(C)N(S(=O)(=O)c1cccs1)CC2 (centres undefined) ?
-12.1

Which inhibition value is on record for Cc1cccc(Cn2cc(/C=C/[N+](=O)[O-])c3ccccc32)c1 ?
-0.16

Which inhibition value is on record for CCOC(=O)CSc1nc2ccsc2c(=O)n1C1CCN(C(=O)OCC)CC1 ?
39.3

* * *

Test: M. tuberculosis growth inhibition, HTS (AID 449762);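 note: bacterial growth assessed after seven days of incubation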
Conditions: M. tuberculosis H37Rv growth inhibition, 7H9 media; at 25 µM; active compounds read high
Hit rate of the full screen: of about 330,000 compounds, about 1,900 (0.58%) were called active. Roughly 4% stayed inconclusive and do not appear here. The list is a sample of the results. Potency and affinity values are given separately.
Test readout: inhibition (%)
Report the value in % with no unit label.

Completed entries (count: 4):
CCc1nnc(NS(=O)(=O)c2ccc(N/C=C/C(=O)c3ccc(OC)cc3)cc2)s1; 4.48
Cc1ccc(C(=O)N/N=C2\CCCc3ccccc32)c(C)c1; -7.5
CC(=O)Nc1ccc(C(=O)CN2C(=O)NC3(CCOc4ccccc43)C2=O)c(F)c1 (stereo not given); -3.12
COc1ccc(NC(=O)COC(=O)CCCc2c[nH]c3ccccc23)cc1; 37.6

We now examine a further compound.
Which inhibition value is on record for COc1ccc(CCNCC(O)COc2ccc(Cl)cc2)cc1OC (stereo not given) ?
-0.15

* * *

A collection of compounds and their measured inhibition
Assay: M. tuberculosis growth inhibition, HTS (AID 449762);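 note: bacterial growth assessed after seven days of incubation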
Conditions: M. tuberculosis H37Rv growth inhibition, 7H9 media; at 25 µM; active compounds read high
Among all 330,000 compounds or so, about 1,900 (0.58%) were called active. Inconclusive results (about 4%) are left out. Only a sample is shown. Potency and affinity values are given separately.
Report the value in % with no unit label.

Completed entries (count: 5):
COc1ccc(-n2c(-c3ccc(Br)cc3)n[nH]c2=S)cc1; 7.43
O=C(NC1CCN(Cc2ccccc2)CC1)c1cccc(S(=O)(=O)Nc2ccc(F)cc2)c1; 37.8
Cc1ccc(/C=N/Nc2nnc(Cc3ccccc3)c(=O)[nH]2)o1; 0.24
COc1ccc(NS(=O)(=O)c2cccc(C(=O)NC3CCN(Cc4ccccc4)CC3)c2)cc1; 6.7
COc1ccc(S(=O)(=O)N2CCC(c3cc(-c4cccc5ccccc45)n[nH]3)CC2)cc1; 66.5

Which inhibition value is on record for O=[N+]([O-])/C(N=Nc1ccccc1)=N\Nc1ccccc1 ?
-2.92

Which inhibition value is on record for NC(=O)/C(N=Nc1ccccc1)=N/Nc1ccccc1 ?
63.8

Which inhibition value is on record for O=C(C[C@H]1C/C=C\C[C@H](NC(=O)OCC2c3ccccc3-c3ccccc32)C(=O)OC[C@@H]2CCCN2C1=O)N[C@H](CO)Cc1ccccc1 ?
-0.02

Which inhibition value is on record for O=C(c1ccc(Br)o1)N1CCc2ccccc21 ?
-3.15

Which inhibition value is on record for Cc1cc(OCC(=O)NCc2ccccn2)c2c(C)c(Cc3ccccc3)c(=O)oc2c1 ?
3.29

* * *

A collection of compounds and their measured inhibition
Assay: M. tuberculosis growth inhibition, HTS (AID 449762);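 note: bacterial growth assessed after seven days of incubation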
Settings: M. tuberculosis H37Rv growth inhibition, 7H9 media; at 25 µM; active compounds read high
About 1,900 (0.58%) of roughly 330,000 compounds were called active. Roughly 4% stayed inconclusive and do not appear here. A selection follows. Entries with a potency or affinity are not part of this list.
Report the value in % with no unit label.

COc1cccc(-c2cccc(NC(=O)C3CCN(C4CCOCC4)CC3)c2)c1; 6.63
Cc1nc(-c2ccccc2)sc1C(=O)/C=C/c1ccc(Cl)cc1; 36.1
COc1ccc(C)cc1S(=O)(=O)NCc1cccs1; 1.39
Cc1ccc(S(=O)(=O)N(C)c2ccc(OCC(=O)OCC(=O)N(CC#N)c3ccccc3)cc2)cc1; 15.9

Which inhibition value is on record for CN1CCN(CC(O)COc2ccc(C(=O)O)cc2)CC1 (configuration not stated) ?
4

Which inhibition value is on record for CCCCCCCCNC(CO)(CO)CO ?
-13.8

Which inhibition value is on record for CC(=O)N[C@H]1[C@H](Oc2ccc3c(c2)CCC2C3CC[C@]3(C)C(=O)CCC23)O[C@H](CO)[C@@H](O)[C@@H]1O (some centres not stated) ?
3.76

Which inhibition value is on record for COc1ccc(C(CNC(=O)C2CC2)N(C)C)cc1 (configuration not stated) ?
-15.1

Which inhibition value is on record for COc1ccc2noc3c2c1C(=O)c1ccccc1-3 ?
38.9

Which inhibition value is on record for O=C(NCc1ccc2c(c1)OCO2)c1ccc(C2SCC(=O)N2Cc2ccco2)cc1 (configuration not stated) ?
-7.71

Which inhibition value is on record for Cc1ccc(S(=O)(=O)N(C)c2ccc(OCC(=O)OCc3c(C)noc3C)cc2)cc1 ?
47.9

* * *

Test: M. tuberculosis growth inhibition, HTS (AID 449762);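 note: bacterial growth assessed after seven days of incubation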
Details: M. tuberculosis H37Rv growth inhibition, 7H9 media; at 25 µM; active compounds read high
The whole screen tested about 330,000 compounds, of which about 1,900 (0.58%) were called active. Inconclusive results (about 4%) are left out. Only a sample is shown. Measured potencies and affinities stand elsewhere.
Test readout: inhibition (%)
Report the value in % with no unit label.

Completed entries (count: 3):
CSc1ccc(CN2CCC(CO)(Cc3ccc(Cl)cc3)CC2)cc1; 2.5
COc1cc(/C=C/c2cccc[n+]2C)ccc1OCC(=O)Nc1ccccc1C; -9.56
Cc1ccc(C2(CC(=O)O)CCOC(C)(C)C2)cc1 (configuration not stated); 5.71

Which inhibition value is on record for O=C(O)CC(Cc1ccc(Cl)cc1)C(=O)NCc1ccccc1 (configuration not stated) ?
-1.83

Which inhibition value is on record for O=C1/C(=C/c2ccncc2)CCc2ccccc21 ?
20.6

Which inhibition value is on record for O=C(NC1CC1)c1cccc(S(=O)(=O)Nc2ccccc2F)c1 ?
-4.2

Which inhibition value is on record for Cc1ccc(-n2ccnc2SCC(=O)c2c(N)n(C3CC3)c(=O)[nH]c2=O)cc1C ?
-3.24

Which inhibition value is on record for C#CC1CCCCC1NC(=O)Nc1cnccc1C(F)(F)F (configuration not stated) ?
-0.16

Which inhibition value is on record for O=C(CN1C(=O)C2CCCCC2C1=O)OCn1nnc2ccccc2c1=O (configuration not stated) ?
2.65

Which inhibition value is on record for COc1ccccc1/C=C/C(=O)Nc1ccc(S(=O)(=O)Nc2cc(C)nc(C)n2)cc1 ?
8.18

Which inhibition value is on record for O=C(Cc1ccc(Cl)cc1)N/N=C/c1cccc(O)c1 ?
9.69

Which inhibition value is on record for CCc1ccc(/C=C2/C(=O)N(c3ccccc3)C(=S)N2CC(=O)OC)s1 ?
10.2

Which inhibition value is on record for O=[N+]([O-])c1ccc(N=Cc2ccc(Br)c([N+](=O)[O-])c2)cc1 ?
-2.74
